Tested on: LG0567-F671-PDC multi-cell spheroid viability;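 further: viability read after 7 days of drug exposure; 100% = DMSO vehicle control luminescence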
Test: Anticancer human tumor LG0567-F671-PDC patient-derived lung adenocarcinoma cell line growth inhibition [IpAb]
Settings: second compound 0.1 µM; first compound 0.0316 µM; stronger effect = lower value
Entries and their viability, T/C values follow.

Compound	viability, T/C / %
COc1c(OCCCN2CCOCC2)ccc2c3n(c(=NC(=O)c4cnc(N)nc4)nc12)CCN3 + CC(C)NCC(C(=O)N1CCN(c2ncnc3c2C(C)CC3O)CC1)c1ccc(Cl)cc1	54.7
Cc1nc(NC(=O)N2CCCC2C(N)=O)sc1-c1ccnc(C(C)(C)C(F)(F)F)c1 (stereo unspecified) + CCN1CCN(Cc2ccc(Nc3ncc(F)c(-c4cc(F)c5nc(C)n(C(C)C)c5c4)n3)nc2)CC1	57.4
CC1(C)CCC(CN2CCN(c3ccc(C(=O)NS(=O)(=O)c4ccc(NCC5CCOCC5)c([N+](=O)[O-])c4)c(Oc4cnc5[nH]ccc5c4)c3)CC2)=C(c2ccc(Cl)cc2)C1 + CC(C)NCC(C(=O)N1CCN(c2ncnc3c2C(C)CC3O)CC1)c1ccc(Cl)cc1	78.6
C=CC(=O)N1CCN(c2nc(=O)n(-c3c(C)ccnc3C(C)C)c3nc(-c4c(O)cccc4F)c(F)cc23)C(C)C1 (stereo unspecified) + CC(C)NCC(C(=O)N1CCN(c2ncnc3c2C(C)CC3O)CC1)c1ccc(Cl)cc1	20
Cn1nccc1Nc1nccc(-c2ccn(C(CO)c3ccc(Cl)c(F)c3)c(=O)c2)n1 (stereo unspecified) + CC(C)NCC(C(=O)N1CCN(c2ncnc3c2C(C)CC3O)CC1)c1ccc(Cl)cc1	60.9
CCCS(=O)(=O)Nc1ccc(F)c(C(=O)c2c[nH]c3ncc(-c4ccc(Cl)cc4)cc23)c1F + CCN1CCN(Cc2ccc(Nc3ncc(F)c(-c4cc(F)c5nc(C)n(C(C)C)c5c4)n3)nc2)CC1	77.4
Cn1nccc1Nc1nccc(-c2ccn(C(CO)c3ccc(Cl)c(F)c3)c(=O)c2)n1 (stereo unspecified) + CCN1CCN(Cc2ccc(Nc3ncc(F)c(-c4cc(F)c5nc(C)n(C(C)C)c5c4)n3)nc2)CC1	57.1
Cn1ncc(Cl)c1-c1cc(C(=O)NC(CN)Cc2cccc(F)c2)sc1Cl (stereo unspecified) + CC(C)NCC(C(=O)N1CCN(c2ncnc3c2C(C)CC3O)CC1)c1ccc(Cl)cc1	68.7
Cc1nc(NC(=O)N2CCCC2C(N)=O)sc1-c1ccnc(C(C)(C)C(F)(F)F)c1 (stereo unspecified) + CC(C)NCC(C(=O)N1CCN(c2ncnc3c2C(C)CC3O)CC1)c1ccc(Cl)cc1	85.3
Cn1ncnc1[C@H]1c2n[nH]c(=O)c3cc(F)cc(c23)N[C@@H]1c1ccc(F)cc1 + CC(C)NCC(C(=O)N1CCN(c2ncnc3c2C(C)CC3O)CC1)c1ccc(Cl)cc1	42
Cn1ncc(Cl)c1-c1cc(C(=O)NC(CN)Cc2cccc(F)c2)sc1Cl (stereo unspecified) + CCN1CCN(Cc2ccc(Nc3ncc(F)c(-c4cc(F)c5nc(C)n(C(C)C)c5c4)n3)nc2)CC1	74.8

Reference source: PubChem BioAssay AID2060332
